Every entry's value here was drawn from the supplement of paper PMC10126150.

Test system: ATP;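 further: ATP exposure 15 min at 22 °C before imaging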
experiment_notes: switch fluorescence ratio, 500 uM ATP over buffer (Cy3 cluster intensity, sum of 5 cycles each) (fold (ratio)); higher = stronger signal-on switching upon ATP binding; sequences stand for … in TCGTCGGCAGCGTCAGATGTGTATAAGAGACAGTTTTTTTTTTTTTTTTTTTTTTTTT…TC
applied_conditions: aptamer strand: ATP DNA aptamer (quencher-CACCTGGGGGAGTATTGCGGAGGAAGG + anchor), 100 nM annealed; ATP concentration: 500 uM
measure: switch fluorescence ratio
Write the number on its own, no unit after it.

Hi! What's the reported switch fluorescence ratio for TCAGTGGGGT on ATP? 1

Observed switch fluorescence ratio on ATP for AATTGG , please. 0.992

API: value(readout= switch fluorescence ratio, system= ATP, query= TCGCGGCAGT ) 1.04

Test system ATP; read-out switch fluorescence ratio; what value for TATGGCCGTG ? 0.998

Entry CAATAACTGG , system ATP: what switch fluorescence ratio was measured? 1.01

Return switch fluorescence ratio measured with ATP given this sequence: CAGCGTGGCA 1

Param readout = switch fluorescence ratio; param system = ATP; param query = GGCATGGTGG ; response: value 1.01

Under ATP: switch fluorescence ratio value of TTACATAGTA ? 1.06

* * *

Record form. Attribute: switch fluorescence ratio. Fill in for each entry.
System: ATP;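 further: ATP exposure 15 min at 22 °C before imaging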
experiment_notes: switch fluorescence ratio, 500 uM ATP over buffer (Cy3 cluster intensity, sum of 5 cycles each) (fold (ratio)); higher = stronger signal-on switching upon ATP binding; sequences stand for … in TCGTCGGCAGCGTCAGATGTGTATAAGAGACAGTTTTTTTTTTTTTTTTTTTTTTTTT…TC
applied_conditions: aptamer strand: ATP DNA aptamer (quencher-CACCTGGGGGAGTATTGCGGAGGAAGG + anchor), 100 nM annealed; ATP concentration: 500 uM

Would you mind telling me what switch fluorescence ratio value was observed for TATTAGGTCT ? 0.991

Report switch fluorescence ratio for CTCGTCCTTA please. 1.02

Quick one: switch fluorescence ratio of GCTAAAACAT ? 1.01

State the recorded switch fluorescence ratio for this entry: GGTTCTAAGA 0.981

Given the sequence ACGGGGGCTT , what is its reported switch fluorescence ratio? 1.04

// switch fluorescence ratio lookup, key: TTTTGGGGCG 1.04

Fill in the blank: the reported switch fluorescence ratio of GGTATGAGAC is ____. 1.01

What value of switch fluorescence ratio has been recorded for this entry: GATAGAGGGT 1.01

Which switch fluorescence ratio is listed for TTAATCAATG ? 0.998

Which switch fluorescence ratio value belongs to ATGTCTGGGC ? 0.977

May I ask what switch fluorescence ratio has been recorded for GAGTGTCAGC ? 1

Name the recorded switch fluorescence ratio for AAGGGGCCTG . 0.977

State the recorded switch fluorescence ratio for this entry: CTGTTCTGGG 1

Which measured switch fluorescence ratio value corresponds to GGGTATGGGG ? 1.01

Dear colleague, I am looking for the recorded switch fluorescence ratio of the following sequence: AGTTAGAGGT 1.05

What value of measured switch fluorescence ratio is listed for TGGGTTTCT ? 1

I would be grateful if you could share the reported switch fluorescence ratio for ACGTTATTTG . 1.11

Need switch fluorescence ratio, item TGTGGACTGT 0.985

Would you mind telling me what switch fluorescence ratio value was observed for TGACGTAGTG ? 0.991

Param item = TGGGATTTAG ; retrieve measured switch fluorescence ratio. 1

Endpoint output: switch fluorescence ratio of TGGATAGGGT . Value? 0.961

Consider the sequence shown here: ATTTCTATCC What is its recorded switch fluorescence ratio? 1.09

Field request: switch fluorescence ratio | item: TCGTACGTTT 1.04

Recorded switch fluorescence ratio for CAGGTAAATG , please? 0.996

What switch fluorescence ratio value was documented for this sequence, GCGCTGGTTA ? 0.994

Tell me the measured switch fluorescence ratio of TGCGACTGG , please. 0.998

Fill blank: measured switch fluorescence ratio of the sequence TCGAGTGTGC is ____. 1.06

Field request: switch fluorescence ratio | item: GGTACCAGTT 1.01

Given GGGGGCATCA , state its recorded switch fluorescence ratio. 1.07

For the sequence TAGTGGGCTG , what switch fluorescence ratio is on record? 0.972

Fill in: switch fluorescence ratio of ACCGCGGTGT is ___ 1.01

Quick one: switch fluorescence ratio for CGTGAGAAAG ? 1

Sample AATTGGCGGT — what was its switch fluorescence ratio? 1.03

What does the data say about its switch fluorescence ratio? Entry: GGGGGAAAAG 1.03

Tell me the measured switch fluorescence ratio of TTCGGTATGT , please. 1.01

// switch fluorescence ratio lookup, key: GGGAGTGGGT 0.99

Query: switch fluorescence ratio; subject: ATATTTACGG 1.08

What measured switch fluorescence ratio goes with TGTAGTCTTT ? 1.03

So what's the measured switch fluorescence ratio for this one? ACGAGGCGTA 1.04
